# experimental_target: Rac GTPase-activating protein 1 (Homo sapiens) (UniProt Q9H0H5)
# Sequence (Q9H0H5 whole entry, looked up): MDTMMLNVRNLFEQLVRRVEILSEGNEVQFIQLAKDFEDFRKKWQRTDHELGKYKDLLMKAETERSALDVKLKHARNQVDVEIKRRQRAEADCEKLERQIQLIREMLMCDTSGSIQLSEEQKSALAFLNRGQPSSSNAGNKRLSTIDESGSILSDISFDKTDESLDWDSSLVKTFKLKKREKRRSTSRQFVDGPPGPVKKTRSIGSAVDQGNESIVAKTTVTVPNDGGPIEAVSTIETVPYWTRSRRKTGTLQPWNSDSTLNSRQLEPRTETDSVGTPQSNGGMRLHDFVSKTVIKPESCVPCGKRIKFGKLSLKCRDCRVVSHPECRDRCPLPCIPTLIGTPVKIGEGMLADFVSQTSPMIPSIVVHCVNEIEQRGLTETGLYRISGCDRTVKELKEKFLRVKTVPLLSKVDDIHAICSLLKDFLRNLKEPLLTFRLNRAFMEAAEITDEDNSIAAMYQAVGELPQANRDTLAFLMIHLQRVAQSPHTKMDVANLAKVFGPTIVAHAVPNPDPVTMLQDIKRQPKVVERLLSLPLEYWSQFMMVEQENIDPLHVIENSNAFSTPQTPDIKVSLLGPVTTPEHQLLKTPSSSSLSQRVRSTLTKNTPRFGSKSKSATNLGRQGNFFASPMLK
# experiment_summary: blockers of MgcRacGAP-driven Rac1 GTP hydrolysis – biochemical, ADP Hunter fluorescence, primary and confirmatory, confirmation (AID 624330);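 also: fluorescence reports GDP produced by GAP-driven GTP hydrolysis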
# condition_description: MgcRacGAP-stimulated Rac1 GTP hydrolysis, at 30 µM, stronger effect = higher value, GST-tagged Rac1 F28L mutant substrate
Out of some 340,000 compounds screened, about 2,100 (0.62%) were called active. A selection follows. Potency and affinity values are given separately.
Quick rule: inhibition of at least 10% means Criterion met, below that means Criterion not met.

1. COc1cccc(/C=N/NC(=O)CCc2ccccc2)c1; Criterion not met
2. CC(Sc1ncnc2ccccc12)C(=O)Nc1ccc2c(c1)OCO2 (centres undefined); Criterion not met
3. COc1ccc(NC(=O)CCNC(=O)c2ccccc2Cl)cc1OC; Criterion not met
4. COc1cc(/C=N/NS(=O)(=O)c2ccc(C)c([N+](=O)[O-])c2)cc([N+](=O)[O-])c1O; Criterion met
5. Cn1c(-c2ccc(F)cc2)cnc1NCc1ccc(F)cc1F; Criterion met
6. Cc1ccc(C(C)C)c(OC/C(O)=C(\C#N)c2nc3ccccc3[nH]2)c1; Criterion not met
7. COc1ccc(/C=N/NC(=O)CCc2ccccc2)cc1O; Criterion met
8. COc1ccc(CNc2ncc(-c3cccc([N+](=O)[O-])c3)n2C)c(OC)c1OC; Criterion met
9. O=C(Nc1ccccc1)c1cccc(N2C(=O)C3C4C=CC(C4)C3C2=O)c1 (centres undefined); Criterion not met
10. COc1ccccc1/C=N/Nc1cc(C)nc2ccc(C)cc12; Criterion met
11. COc1cc(/C=N/n2c(C3CCCCC3)n[nH]c2=S)cc(OC)c1O; Criterion met
12. Fc1ccc(OCc2nc3ccccc3s2)cc1; Criterion not met
13. CC(=O)NC(CC(=O)NCCc1ccccc1)c1ccccc1 (centres undefined); Criterion not met
14. CCOc1ccccc1N1CCN(CC(=O)Nc2ccnn2C2CCCC2)CC1; Criterion not met
15. CC(=O)NC(Cc1ccc(C(C)C)cc1)C(=O)NC1CCN(c2nc(C)cc(C)n2)CC1 (centres undefined); Criterion not met
16. Cc1ccc(/C=N\NC(=O)CC(=O)NCCc2ccccc2)cc1; Criterion not met
17. C=CCOc1ccc(/C=N/n2nnnc2N)cc1OC; Criterion met
18. COc1cc(C(=O)N/N=C/c2ccc(OC(=O)c3ccccc3Cl)c(OC)c2)ccc1O; Criterion met
19. O=C(O)c1ccccc1N=Nc1ccc(O)cc1; Criterion met
20. CC1CN(C(=O)CS(=O)(=O)Cc2ccc(Cl)cc2)CC(C)O1 (centres undefined); Criterion not met
21. Oc1ccc(N=Nc2ccc3ccccc3c2)cc1; Criterion met
22. COc1ccc(/C=N\NC(=O)CNC(=O)C(c2ccccc2)c2ccccc2)cc1[N+](=O)[O-]; Criterion not met
23. COc1ccc(CNc2ncc(-c3ccccc3)n2C)c2ccccc12; Criterion met

----------
# experimental_target: Rac GTPase-activating protein 1 (Homo sapiens)
# experiment_summary: blockers of MgcRacGAP-driven Rac1 GTP hydrolysis – biochemical, ADP Hunter fluorescence, primary and confirmatory, confirmation (AID 624330);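 also: fluorescence reports GDP produced by GAP-driven GTP hydrolysis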
# condition_description: MgcRacGAP-stimulated Rac1 GTP hydrolysis, at 30 µM, stronger effect = higher value, GST-tagged Rac1 F28L mutant substrate
Screen size: about 340,000 compounds; about 2,100 (0.62%) were called active. These entries were drawn from the full list. Results with a measured potency or affinity are listed apart.
measured_quantity: inhibition (%)

1) Cc1ccc(S(=O)(=O)N2CCOCC2)cc1C(=O)NC1CCCC1; 6.35
2) C[C@@H]1CN([C@@H](C)CO)C(=O)CCCn2nncc2CO[C@@H]1CN(C)S(C)(=O)=O; 12
3) CC1Cc2ccccc2N1C(=O)CNc1ccccc1N1CCCCC1 (configuration not stated); -0.46
4) COC(=O)C=CSC(=S)C1CCCC1=N (configuration not stated); 6.77
5) CCN1C(=O)[C@H]2[C@H]3CN=C(SCc4ccc(C(=O)OC)cc4)N3[C@@](CC)(C(=O)OC)[C@H]2C1=O; 6.61
6) COc1ccc(S(=O)(=O)N2CCCCC2)cc1NC(=O)C1CSC2(C)CCC(=O)N12 (configuration not stated); 5.04
7) CCN(CC)C(=O)CN1C(=O)C(=O)c2ccccc21; 6.56
8) Cc1nc(N2CCN(c3ccccc3)CC2)nc2c1C(=O)CCC2; 5.63
9) CCOc1ccc(N2C(=O)Nc3ccc(Br)cc3C2(O)C(=O)NCCCN(C)C)cc1 (configuration not stated); 8.07
10) CCCC1=[N+](CC(C)=O)CCn2c(C)ccc21; -4.62
11) COc1cc(/C=C2\SC(=S)N(NC(=O)c3ccccc3OC)C2=O)ccc1O; 8.13
12) Cc1ccc(/C=N/N2CCN(c3ccccn3)CC2)cc1; 6.1
13) CC(=O)N(C)c1ccc(NC(=O)Cc2cccs2)cc1; -7.79
14) O=C(CCCN1C(=O)/C(=C\c2ccccc2)SC1=S)Nc1ccc(O)cc1C(=O)O; 12.8
15) CCc1cc(C(=O)NCC(c2ccco2)N2CCCCC2)sc1C (configuration not stated); 5.34
16) CC(C)(C)OC(=O)N1CCC(C(=O)N[C@@H](Cc2ccccc2)C(=O)O)CC1; 4.57
17) CCCC(C(=O)N(C)CC(=O)Nc1ccc(N2CCOCC2)cc1)c1ccccc1 (configuration not stated); 7.2
18) O=C(NCc1ccccc1)NC(=O)c1ccncc1; 8.08
19) Cc1ccccc1C(=O)N1CCC(C(=O)Nc2ccccn2)CC1; 3.54
20) Nc1ccc2c(c1)CCC2=O; 1.82
21) COc1cc(N)ccc1-c1cc2ccccc2oc1=O; 3.42
22) COc1cc2c(cc1NC(=O)c1ccncc1)oc1ccccc12; 14.9
23) O=C(NN1C(=O)/C(=C/c2ccc(O)cc2)SC1=S)c1cccc(O)c1; 30.8
24) Cc1c(-c2ccccc2)cn2c1-c1ccc(C)n1CC2; 5.62
25) Cc1cc(C)n(CCC(=O)N/N=C/c2ccc(O)cc2O)n1; -27.4
26) COc1ccc2c(c1)CC=C1C2CCC2(C)C(=O)C(=NO)CC12 (configuration not stated); 5.55
27) O=[N+]([O-])c1cc2c(cc1Br)-c1ccccc1C2; 3.13
28) O=C(CCn1cnc2ccccc21)N/N=C/c1ccccc1O; 0.87
29) CC(C)CC(=O)NC(=S)Nc1ccc(N2CCN(C(=O)c3cccs3)CC2)cc1; 9.14
30) O=C1CC2(CCCC2)C(=O)N1c1ccc(S(=O)(=O)NCC2CC2)cc1Cl; 5.71
31) COc1cc2c(cc1[N+](=O)[O-])-c1ccccc1C2; -0.68
32) Nc1ccc2c(c1)Cc1c(F)cccc1-2; 19.7

Data provenance: PubChem BioAssay AID624330
